# TGI per record follows
Tested on: CAKI-1 renal
Procedure details: NCI tumour cell line growth inhibition, 48 h

Molecule | TGI
CCN(Cc1c(Cl)cccc1Cl)c1ccc(CO)c(Cl)c1 | 21.9 µM
CC(=O)N/C(=C\c1ccc(Cc2nc3c([nH]2)C(=O)c2ccccc2C3=O)cc1)c1nc2c([nH]1)C(=O)c1ccccc1C2=O | > 100 µM
CN(C)C(=O)Oc1c(-c2ccccc2)c(=O)n2c3ccccc3n3c(=O)n(C)c(=O)c1c23 | > 100 µM
CCCCCCCCCCC(C)CCCCCCC(=O)O (stereo unspecified) | > 100 µM
O=NN(CCCl)C(=O)NC1CCC(CC2CCC(NC(=O)N(CCCl)N=O)CC2)CC1 (stereo unspecified) | > 100 µM
COc1ccc(C[C@H](N)C(=O)N2C[C@@H](CO)C[C@@H](n3ccc(=O)[nH]c3=O)C2)cc1 | > 100 µM
COc1c(B(O)O)cc(F)cc1-c1nc2ccc3[nH]ncc3c2c2c1CCCC2 | 0.134 µM
O=C(N/N=C/c1cc(Br)cc(Br)c1[O-])c1ccccc1O.O=C(N/N=C/c1cc(Br)cc(Br)c1[O-])c1ccccc1O.[Ni+2] | 1.53 µM
CC(=O)Nc1ccccc1NC1CC(C)N(c2ccccc2)N1C(C)=O (stereo unspecified) | > 10 µM
Cc1coc2c1C(OC(=O)C(C)C)C1(C)C(C)CCC(O)C1C2=O (stereo unspecified) | > 100 µM
Cc1c([N+](=O)[O-])oc2ccc3ccccc3c12 | > 100 µM
O=C1C(=Cc2ccc(Cl)c(Cl)c2)C([O-])=C([P+](c2ccccc2)(c2ccccc2)c2ccccc2)C([O-])=C1[P+](c1ccccc1)(c1ccccc1)c1ccccc1 | 6.78 µM
N#CCC(=O)N1CCCCCCC1 | > 100 µM
C[C@@H]1COCCN1c1cc(C2(O)C[C@H]3CC[C@@H](C2)O3)c2cnn(-c3ccn[nH]3)c2n1 (stereo partly specified) | 0.627 µM
CN1C/C(=C\C=C\c2ccccc2)C(=O)/C(=C/C=C/c2ccccc2)C1 | > 100 µM
CC1(C)N=C(c2ccccn2)C(c2ccccn2)=NC1(C)C | > 100 µM
Cn1c(=O)c2/c(n(C)c1=O)=N\C=c1\c(=O)n(C)c(=O)n(C)\c1=N\C=2 | > 100 µM
CCN(CC)CCNC(=O)c1cccc2nc3ccccc3nc12 | > 100 µM
Cc1ccc([C@]2(C)CC[C@H](C)/C2=C\Br)c(O)c1 | 16.6 µM
Cc1ccc([N+](=O)[O-])c2c(NCC(O)CO)ccnc12 (stereo unspecified) | > 100 µM
Cc1cn(S(=O)(=O)c2ccccc2)c2c(OCc3ccccc3)cc(NS(C)(=O)=O)cc12 | > 100 µM
Cc1ccc(CCC(=O)C(=O)O)s1 | 90.3 µM
CCN(c1cc(C#CCN2CCOCC2)cc(C(=O)NCc2c(C)cc(C)[nH]c2=O)c1C)C1CCC(N(C)CCOC)CC1 (stereo unspecified) | > 100 µM
Nc1ncc(-c2cccc(S(N)(=O)=O)c2)c2scc(-c3ccc(F)c(Cl)c3)c12 | 21.4 µM
O=C(NC(=S)Nc1cc(Cl)ccc1O)c1cccc(Br)c1 | > 100 µM
O=C(O)c1cc2ccccc2c2c1C(=O)c1ccccc1-2 | > 100 µM
